Data credit: patent US20210095032A1

Target: T1, biotin-labeled human PD-1 Fc protein (human, biotin-labeled (site not stated))
T1 construct: also called PD-1-Fc-biotin
T1 sequence (chain, as listed by the source limits assumed): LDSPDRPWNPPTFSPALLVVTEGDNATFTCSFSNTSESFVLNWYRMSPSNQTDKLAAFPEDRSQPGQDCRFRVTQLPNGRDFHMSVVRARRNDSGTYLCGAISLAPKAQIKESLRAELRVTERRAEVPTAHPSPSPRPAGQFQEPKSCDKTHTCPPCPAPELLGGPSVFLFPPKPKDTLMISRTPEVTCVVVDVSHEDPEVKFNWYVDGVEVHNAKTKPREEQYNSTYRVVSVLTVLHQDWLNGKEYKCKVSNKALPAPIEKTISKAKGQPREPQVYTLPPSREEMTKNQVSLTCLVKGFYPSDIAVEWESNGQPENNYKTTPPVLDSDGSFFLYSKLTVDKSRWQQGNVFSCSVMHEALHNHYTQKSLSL
Experiment: capture ELISA, antibody captured on plate, biotin-labeled human PD-1 Fc in solution
observable: EC50 (nM)
# unit: nM | format: bare number

Known results for binders:
huD2A4-V6 (antibody, human IgG1, kappa, V domains shown, Humanized D2A4, human IgG1/kappa) VH: EVQLVESGGGLVQPGGSLRLSCAASGFTFSSYTMSWVRQAPGKGLEWVSTISGGGSNTYYPDSVKGRFTISRDNSKNTLYLQMNSLRAEDTAVYYCARQAFYSNYWYFDVWGKGTTVTVSS VL: DIQMTQSPSSVSASVGDRVTITCLASQTIGTWLAWYQQKPGKAPKLLIYAATSLADGVPSRFSGSGSGTDFTLTISSLQPEDFATYYCQQVSSIPWTFGGGTKVEIKR ... 0.27
huD2H3-V14 (antibody, human IgG1, kappa, V domains shown, Humanized D2H3, human IgG1/kappa) VH: EVQLVQSGAEVKKPGSSVKVSCKASGYTFTNYWMHWVRQAPGQGLEWMGAIFPRNSETNYNQKFKARVTITADESTSTAYMELSSLRSEDTAVYYCTRNRYGLDYWGQGTLVTVSS VL: DIVMTQSPDSLAVSLGERATINCRASESVSLHGTRLMHWYQQKPGQPPKLLIYLGSNLESGVPDRFSGSGSGTDFTLTISSLQAEDVAVYYCQQSIEDPWTFGQGTKLEIKR ... 0.17
chimeric D2A4 antibody (antibody, human IgG1, kappa, V domains shown, Mouse variable domains cloned in frame to human IgG1 and kappa constant regions; also called chD2A4; ChD2A4) VH: EVKLVESGGGLVKPGGSLKLSCAASGFTFSSYTMSWVRQTPAKRLEWVATISGGGSNTYYPDSVKGRFTISRDNARNTLYLQMSSLRSEDTAMYYCARQAFYSNYWYFDVWGAGTTVTVSS VL: DIQMTQSPASQSASLGESVTITCLASQTIGTWLAWYQQTPGKSPQLLIYAATSLADGVPSRFSGSGSGTKFSFKISSLQAEDFASYYCQQVSSIPWTFGGGTKLEIRR ... 0.24
mouse anti-PD-1 monoclonal antibody D2H3 (antibody, V domains shown, Mouse antibody purified from a hybridoma; also called Mouse D2H3; mouse D2H3) VH: EVQLQQSGTVLARPGASVKMSCKSSGYTFTNYWMHWVKQRPGQGLEWIGAIFPRNSETNYNQKFKAKAKLTAVTSASTAYMEVSSLTSEDSAVYFCTRNRYGLDYWGQGTSVTVSS VL: DIVLTQSPGFLAVSLGQRATISCRASESVSLHGTRLMHWYHQKPGQPPKLLISLGSNLESGVPARFSGSGSETDFTLNIHPVEEEDAATYFCQQSIEDPWTFGGGTKLEIK ... 0.17
mouse anti-PD-1 monoclonal antibody D2A4 (antibody, V domains shown, Mouse antibody purified from a hybridoma; also called Mouse D2A4; mouse D2A4) VH: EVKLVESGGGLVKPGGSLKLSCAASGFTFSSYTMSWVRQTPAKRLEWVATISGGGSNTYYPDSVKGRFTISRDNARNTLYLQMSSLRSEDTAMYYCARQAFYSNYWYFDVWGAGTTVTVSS VL: DIQMTQSPASQSASLGESVTITCLASQTIGTWLAWYQQTPGKSPQLLIYAATSLADGVPSRFSGSGSGTKFSFKISSLQAEDFASYYCQQVSSIPWTFGGGTKLEIR ... 0.13

Exam item: Record request: EC50 value, item chimeric D2H3 antibody (antibody, human IgG1, kappa, V domains shown, Mouse variable domains cloned in frame to human IgG1 and kappa constant regions; also called chD2H3) VH: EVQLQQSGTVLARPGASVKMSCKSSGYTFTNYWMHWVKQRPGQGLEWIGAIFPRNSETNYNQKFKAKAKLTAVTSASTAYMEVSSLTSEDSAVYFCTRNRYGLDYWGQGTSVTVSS VL: DIVLTQSPGFLAVSLGQRATISCRASESVSLHGTRLMHWYHQKPGQPPKLLISLGSNLESGVPARFSGSGSETDFTLNIHPVEEEDAATYFCQQSIEDPWTFGGGTKLEIKR
Marked response: 0.17

Exam item: Look up EC50: Nivolumab (OPDIVO®) (antibody, V domains shown) VH: QVQLVESGGGVVQPGRSLRLDCKASGITFSNSGMHWVRQAPGKGLEWVAVIWYDGSKRYYADSVKGRFTISRDNSKNTLFLQMNSLRAEDTAVYYCATNDDYWGQGTLVTVSS VL: EIVLTQSPATLSLSPGERATLSCRASQSVSSYLAWYQQKPGQAPRLLIYDASNRATGIPARFSGSGSGTDFTLTISSLEPEDFAVYYCQQSSNWPRTFGQGTKVEIK
Marked response: 0.45
